Target: T1, monomeric monkey CD48 expressed with a tag consisting of 2 myc and one 6-His epitopes (monkey)
T1 construct: also called mfCD48-mmH; Monomeric monkey CD48-mmH
T1 chain: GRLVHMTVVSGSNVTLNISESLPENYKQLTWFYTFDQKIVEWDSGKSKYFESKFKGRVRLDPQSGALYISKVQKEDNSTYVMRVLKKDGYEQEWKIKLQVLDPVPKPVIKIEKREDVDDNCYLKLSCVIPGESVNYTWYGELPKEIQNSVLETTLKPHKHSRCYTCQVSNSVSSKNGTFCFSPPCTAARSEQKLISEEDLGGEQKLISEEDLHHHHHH
Assay: competition ELISA; blocks mfCD48-mmH binding to coated h2B4-mFc
MEASURED_ATTRIBUTE: IC50 (nM)
# value in nM; strip the unit string

Sample records with IC50:
• H4H1707N (antibody, V domains shown, Human IgG4 Fc (H4H) form of 1707N) VH: EGQLLESGGGLAQPGGSLRLSCAASGITFGRYAMSWVRQAPGKGLEWVSLISGSGGSTYHADSVKGRFTISRDNSKNTLYLQMNSLRAEDTAVYYCAIYNNYNWFDPWGQGTLVTVSS VL: EIVLTQSPGTLSLSPGERATLSCRASQSVSSNYLAWYQQKPGQAPRLLIYDASSRATDIPDRFSGSGSGTDFTLTISRLEPEDFAVYYCQQYGSSPRTFGQGTKVEIK = 0.045
• H4H1775P (antibody, human IgG4, V domains shown, Human IgG4 Fc (H4H)) VH: QVQLVESGGGVVQPGRSLRLSCAASGFTFSNYGMHWVRQAPGKGLEWVAVIWYDESGKHYADSVKGRFTISRDNSQNTLYLQMTSLRAEDTAVYYCARDRWTYSHYFEYWGQGTLVTVSS VL: DIQMTQSPSSVSASVGDRVTITCRASQDISSWVAWYQQKPGKAPKLLIYAASSLQSGVPSRFSGSGSGTDFTLTISSLQPEDFATYYCQQANSFPRTFGQGTKVEIK = 0.043
• H4H1770P (antibody, human IgG4, V domains shown, Human IgG4 Fc (H4H)) VH: QVQLVQSGAEVKKPGAAVKVSCKASGYTFTAYGISWVRQAPGQGLEWMGWISAYDGDTNNAQKFQGRVTMTTDTSSSTAYMELRSLGSDDTAVYYCARDRYSSSSGYFDYWGQGTLVTVSS VL: DIQMTQSPSSVSASVGDRVTITCRASQDISSWLAWSQQKPGKAPKALIYAASSLQSGVPSRFSGSGSGTDFTLTISSLQPEDFATYYCQQANSFPYTFGQGTKLEIK = 0.022

Task item: Endpoint output: IC50 of H4H1771P (antibody, human IgG4, V domains shown, Human IgG4 Fc (H4H)) VH: QVQLVQSGTEVKKPGASVKVSCKVSGYTLIDLSIHWVRQAPGEGLEWMGGFDPEESETIYAQKFQGRVTMTEDTSTDTAYMELSSLRSEDTAVYYCVTEPIFGILIHESWGQGTLVTVSS VL: DIVMTQTPLSSPVTLGQPASISCRSSHSPVHSNGHTYLSWLQQRPGQPPRILIYKISRRFSGVPDRFSGSGAGTDFTLKISRVETEDVGIYYCMQASQFPWTFGQGTKVEIK . Value?
Reply: 0.0022
